System: E. coli BL21(DE3)
Format: cell-based
ASSAY CONDITIONS: BL21, 18 h
Ends that are not written are not given here.
VALUE TYPE: MIC E. coli (µg/mL)
Provide only the numeric value, understood in µg/mL.

[
  {
    "ORDERED RESIDUES": "DPFGIMSKLQQFIRKFYQSLKHLKT [MPOP-01]",
    "EXPERIMENTAL TARGET": "E. coli BL21(DE3)",
    "UNIT SPEC": "µg/mL",
    "MIC E. coli": 128
  },
  {
    "ORDERED RESIDUES": "GLFDVIKKIAEMVSNGYHTVKKKF [MPOP-08]",
    "EXPERIMENTAL TARGET": "E. coli BL21(DE3)",
    "UNIT SPEC": "µg/mL",
    "MIC E. coli": 32
  },
  {
    "ORDERED RESIDUES": "VMKRIGTILSGLHSLLSKIF [MPOP-05]",
    "EXPERIMENTAL TARGET": "E. coli BL21(DE3)",
    "UNIT SPEC": "µg/mL",
    "MIC E. coli": 32
  },
  {
    "ORDERED RESIDUES": "KLFRVVKKMFHSVFSSIHKYFR [MPOP-06]",
    "EXPERIMENTAL TARGET": "E. coli BL21(DE3)",
    "UNIT SPEC": "µg/mL",
    "MIC E. coli": 32
  },
  {
    "ORDERED RESIDUES": "IKGIIKTIKKMASHFLHSAS [MPOP-09]",
    "EXPERIMENTAL TARGET": "E. coli BL21(DE3)",
    "UNIT SPEC": "µg/mL",
    "MIC E. coli": 16
  },
  {
    "ORDERED RESIDUES": "GGGGMLKYFKTAIHTIKKIGQKIVN [MPOP-04]",
    "EXPERIMENTAL TARGET": "E. coli BL21(DE3)",
    "UNIT SPEC": "µg/mL",
    "MIC E. coli": 16
  }
]

Query: Answer with the recorded MIC E. coli of LHQIKSVIKTAMNVLSGLFSAIKKK [MPOP-02] only.
Result: 32

Query: Consider the sequence IGSFKHVFKRITSMAKAIR [MPOP-10] and give its recorded MIC E. coli.
Result: 256

---

Tested on: MC3T3-E1 cells
Assay type: cell-based, mouse
Ends that are not written are not given here.
Note to self: CC50 (MC3T3-E1) under 30 µg/mL means 1.0, ties and anything higher get 0.0.

Query: Here's an entry: IKGIIKTIKKMASHFLHSAS [MPOP-09] . Is its CC50 (MC3T3-E1) below 30 µg/mL?
Result: 0.0

Query: Dear reviewer, please state whether GGGGMLKYFKTAIHTIKKIGQKIVN [MPOP-04] has CC50 (MC3T3-E1) strictly beneath 30 µg/mL.
Result: 1.0

Query: Consider VMKRIGTILSGLHSLLSKIF [MPOP-05] . Does its CC50 (MC3T3-E1) lie strictly below 30 µg/mL?
Result: 1.0

Query: Hello, is CC50 (MC3T3-E1) of the following sequence strictly smaller than 30 µg/mL? LHQIKSVIKTAMNVLSGLFSAIKKK [MPOP-02]
Result: 1.0

Query: Dear reviewer, please state whether MSKFKHFFNAVKSIFRGLTK [MPOP-03] has CC50 (MC3T3-E1) strictly beneath 30 µg/mL.
Result: 0.0

Query: Hi there! Is CC50 (MC3T3-E1) for GLFDVIKKIAEMVSNGYHTVKKKF [MPOP-08] below 30 µg/mL, do you know?
Result: 1.0

Query: Determine if KLFRVVKKMFHSVFSSIHKYFR [MPOP-06] shows CC50 (MC3T3-E1) strictly lower than 30 µg/mL.
Result: 1.0

Query: Quick check: CC50 (MC3T3-E1) of DPFGIMSKLQQFIRKFYQSLKHLKT [MPOP-01] under 30 µg/mL?
Result: 1.0

Query: Is it true that CC50 (MC3T3-E1) reported for GIGKFLHSFTKFFSKIMNAIR [MPOP-07] is less than 30 µg/mL?
Result: 0.0

Where do the numbers come from? From paper PMC12520537.
